# Test system: Proteus mirabilis
# EXPERIMENT_DESCRIPTION: Antibacterial activity against Proteus mirabilis by two-fold agar dilution method
# Type: functional
MEASURED_ENDPOINT: MIC (µg/mL)

In [3]: df
Out[3]:
                                   molecule  reported_relation  numeric_readout
0  C/C(=N\NC(=O)c1ccccc1O)C1=C(O)[C@H](N)[C@@H]2Cc3c(c(O)c4c(O)c(C)ccc4c3C)C(=O)[C@]2(O)C1=O.Cl                  >              100
1  C/C(=N\NC(=O)c1cccnc1)C1=C(O)[C@H](N)[C@@H]2Cc3c(c(O)c4c(O)c(C)ccc4c3C)C(=O)[C@]2(O)C1=O.Cl                  >              100
2  C/C(=N\c1ccc(C)cc1)C1=C(O)[C@H](N)[C@@H]2Cc3c(c(O)c4c(O)c(C)ccc4c3C)C(=O)[C@]2(O)C1=O.Cl                  =              6.2
3  C/C(=N\NC(=O)Nc1ccccc1Cl)C1=C(O)[C@H](N)[C@@H]2Cc3c(c(O)c4c(O)c(C)ccc4c3C)C(=O)[C@]2(O)C1=O.Cl                  =               50
4  CCCNC(=O)N/N=C(\C)C1=C(O)[C@H](N)[C@@H]2Cc3c(c(O)c4c(O)c(C)ccc4c3C)C(=O)[C@]2(O)C1=O.Cl                  =              6.2
5  C/C(=N\c1ccccc1)C1=C(O)[C@H](N)[C@@H]2Cc3c(c(O)c4c(O)c(C)ccc4c3C)C(=O)[C@]2(O)C1=O.Cl                  =              6.2
6  C/C(=N\NC(=O)c1ccc(O)cc1)C1=C(O)[C@H](N)[C@@H]2Cc3c(c(O)c4c(O)c(C)ccc4c3C)C(=O)[C@]2(O)C1=O.Cl (stereo in doubt)                  =             12.5
